molecular target: CRX HD (His) (UniProt O43186 31-107); experiment: BLI
Sequence (O43186 31-107): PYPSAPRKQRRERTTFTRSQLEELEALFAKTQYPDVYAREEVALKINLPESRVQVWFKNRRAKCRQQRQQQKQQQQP
QUANTITY: Kd (nM)

- BINDER: "Ret4 20-mer biotinylated (dsDNA) DNA 1: CAGGAGCTTAGGAGGGGGAG DNA 2: CTCCCCCTCCTAAGCTCCTG"
  UOM: "nM"
  QUANTITATIVE_RESULT: 430
